# Species on record: Homo sapiens
# Assay remarks: To identify inhibition of the IFN signalling (Jak-Stat) pathway via expression of an eGFP reporter gene under the control of an IFN-stimulated response element (ISRE) containing MxA promoter.
# Format: functional
# Parameters: scale not given: direction of the effect not stated beside the values
# Condition details: 30 µM
Quick list: Percent Effect per entry.
Report only the number, with the unit % understood.

// known answers, use as guide
Cn1c(C(=O)N2CCC(C(=O)N3CCCC3)CC2)c(Cl)c2ccccc21	0.0464
CN(Cc1ccsc1)C(=O)c1cccc(S(=O)(=O)NC(C)(C)C)c1	18.1
O=C(NC1CCS(=O)(=O)C1)c1sccc1-c1ccc(F)cc1 (configuration not stated)	-15.8
CCc1c(C)nc2n(c1=O)CC(C(=O)Nc1nccs1)CS2 (configuration not stated)	4.32
COc1ccc(C(=O)N2CCC(Nc3ccc(C)nn3)CC2)c(F)c1	25.4
CC(NC(=O)COc1ccc(F)cc1)c1nnc2n1CCCCC2 (configuration not stated)	0.906

Ask: Looking for the measured Percent Effect of COc1cc(OC)c(C2Nc3cc(Cl)ccc3C3=NCCN32)cc1OC (configuration not stated) , can you help?
Result: -10.9

* * *

The reader will find reported Percent Effect values listed item by item below.
# Measured on: Tyrosyl-tRNA synthetase, putative (Trypanosoma cruzi (strain CL Brener)) (UniProt Q4DSP6)
# Sequence (Q4DSP6 as listed by the source): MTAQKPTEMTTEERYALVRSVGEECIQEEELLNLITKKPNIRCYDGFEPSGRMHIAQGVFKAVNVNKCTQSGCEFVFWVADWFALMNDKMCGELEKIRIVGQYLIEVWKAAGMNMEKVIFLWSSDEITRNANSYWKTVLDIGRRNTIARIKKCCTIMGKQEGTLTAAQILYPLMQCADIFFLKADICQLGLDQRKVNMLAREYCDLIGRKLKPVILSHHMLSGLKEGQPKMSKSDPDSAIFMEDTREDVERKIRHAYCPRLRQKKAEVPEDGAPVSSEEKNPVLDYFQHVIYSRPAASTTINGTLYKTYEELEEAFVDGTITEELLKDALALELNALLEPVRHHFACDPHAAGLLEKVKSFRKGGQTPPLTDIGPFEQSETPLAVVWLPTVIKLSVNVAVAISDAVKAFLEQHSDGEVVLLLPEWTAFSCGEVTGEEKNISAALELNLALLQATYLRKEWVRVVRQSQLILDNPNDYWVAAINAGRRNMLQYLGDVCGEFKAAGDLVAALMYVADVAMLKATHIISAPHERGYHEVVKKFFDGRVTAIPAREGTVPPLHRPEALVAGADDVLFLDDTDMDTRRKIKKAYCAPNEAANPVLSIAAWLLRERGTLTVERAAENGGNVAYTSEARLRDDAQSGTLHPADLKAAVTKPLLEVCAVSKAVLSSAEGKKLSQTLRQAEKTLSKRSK
# Assay remarks: Trypanosoma cruzi tyrosyl tRNA synthetase (TcYRS) SOP
# Assay type: functional
# Design: scale not given: direction of the effect not stated beside the values
# Condition details: 30 µM
The answer is to be given in %; state only the numeric part.

Examples from the recorded data:
Cc1nc(NCc2cccnc2)c2c(n1)c(C)nn2C	18.5
CCN1CCC(NC(=O)CN2CCCC2Cn2nc(C)cc2C)CC1 (stereo unspecified)	1.24
CCOCCCNC(=O)c1cn(CC)nc1C	17.9
Cc1cnn(CCC(=O)N2CCOC(c3nc(C(C)(C)C)n[nH]3)C2)c1 (stereo unspecified)	-10.3
CCN1CCN(S(=O)(=O)c2cc(Cl)c(Cl)cc2C)CC1	1.24

Could you now look at the following compound, please?
Ask: Test system Tyrosyl-tRNA synthetase, putative (Trypanosoma cruzi (strain CL Brener)) (UniProt Q4DSP6); read-out Percent Effect; what value for COc1ccc(CNC(C)c2ccc3[nH]c(=O)[nH]c3c2)cc1 (stereo unspecified) ?
Result: 1.24

* * *

Documented Percent Effect across a set of compounds
# Measured on: Ubiquitin-activating enzyme e1, putative (Leishmania donovani (strain BPK282A1))
# Assay remarks: Leishmania donovani Ubiquitin Activating Enzyme (LdE1)
# Format: functional
# Design: scale not given: direction of the effect not stated beside the values
# Condition details: 30 µM
Measured potencies and affinities stand elsewhere.
Expressed in %, but write only the number.

// known answers, use as guide
COc1cccc([C@@H]2CN(C(=O)c3ccc(C)cc3O)C[C@H]2C(=O)O)c1	21.6
CN(C)C(=O)CN1CCCCC1c1nc(N)ncc1-c1ccccc1 (stereo unspecified)	2.67
O=C1[C@@H]2CCN(Cc3ccoc3)C[C@@H]2OCCN1Cc1cccnc1	13.3

Ask: Item CCn1nc(C)c2ncnc(NCC(=O)N3CCOCC3)c21 has what recorded Percent Effect?
Result: 9.33

Ask: What value of measured Percent Effect is listed for CN(C)CCN(C)C(=O)c1cnc2c(c1)nc(-c1ccccc1Cl)n2C ?
Result: 5.41

Ask: # query: Percent Effect of entry O=C(COc1cccc(Br)c1)N1CCOCC1c1ncon1 (stereo unspecified)
Result: -2.7

* * *

# Measured on: Chromo domain-containing protein 1 (Saccharomyces cerevisiae (strain ATCC 204508 / S288c) (Baker's yeast)) (UniProt P32657)
# Sequence (P32657 whole entry, the tested form may be a part): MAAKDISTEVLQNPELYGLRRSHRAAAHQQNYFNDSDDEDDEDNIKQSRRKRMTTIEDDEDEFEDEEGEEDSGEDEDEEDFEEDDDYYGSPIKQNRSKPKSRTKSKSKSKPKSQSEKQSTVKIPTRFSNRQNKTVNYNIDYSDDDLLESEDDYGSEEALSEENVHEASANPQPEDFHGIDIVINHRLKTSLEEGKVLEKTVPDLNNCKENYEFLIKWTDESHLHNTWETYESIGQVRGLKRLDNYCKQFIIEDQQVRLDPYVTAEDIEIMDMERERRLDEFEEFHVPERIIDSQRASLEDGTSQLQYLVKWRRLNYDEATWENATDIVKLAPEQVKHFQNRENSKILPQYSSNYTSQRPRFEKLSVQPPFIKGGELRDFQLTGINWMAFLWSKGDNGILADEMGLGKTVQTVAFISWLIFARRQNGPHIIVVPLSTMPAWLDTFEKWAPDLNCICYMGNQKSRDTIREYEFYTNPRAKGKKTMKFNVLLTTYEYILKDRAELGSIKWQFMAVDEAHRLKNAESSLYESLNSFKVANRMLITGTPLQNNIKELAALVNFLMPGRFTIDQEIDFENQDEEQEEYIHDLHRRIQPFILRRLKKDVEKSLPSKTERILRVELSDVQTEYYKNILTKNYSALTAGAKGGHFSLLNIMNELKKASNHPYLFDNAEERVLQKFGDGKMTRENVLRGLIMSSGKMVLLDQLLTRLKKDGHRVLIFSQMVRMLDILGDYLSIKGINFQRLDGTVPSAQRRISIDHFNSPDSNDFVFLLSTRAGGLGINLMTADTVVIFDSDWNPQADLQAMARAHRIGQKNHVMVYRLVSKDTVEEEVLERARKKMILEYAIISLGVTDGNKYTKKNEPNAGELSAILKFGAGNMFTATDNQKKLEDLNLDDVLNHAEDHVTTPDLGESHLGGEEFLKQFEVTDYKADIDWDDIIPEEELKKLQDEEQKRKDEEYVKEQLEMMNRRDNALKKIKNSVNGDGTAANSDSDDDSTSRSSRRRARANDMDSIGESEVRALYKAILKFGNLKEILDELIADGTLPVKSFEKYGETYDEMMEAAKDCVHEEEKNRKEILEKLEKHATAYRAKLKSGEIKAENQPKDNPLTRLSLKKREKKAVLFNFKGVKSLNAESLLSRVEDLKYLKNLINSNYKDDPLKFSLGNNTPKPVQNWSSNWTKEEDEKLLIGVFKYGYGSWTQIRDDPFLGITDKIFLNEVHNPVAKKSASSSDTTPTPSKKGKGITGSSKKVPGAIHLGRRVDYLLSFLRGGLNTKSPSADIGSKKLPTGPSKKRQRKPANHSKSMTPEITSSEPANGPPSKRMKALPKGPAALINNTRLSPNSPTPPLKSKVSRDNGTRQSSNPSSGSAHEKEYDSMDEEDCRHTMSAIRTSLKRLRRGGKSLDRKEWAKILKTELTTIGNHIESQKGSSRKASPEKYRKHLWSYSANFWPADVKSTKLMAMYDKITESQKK
# Assay remarks: ScCHD-1 Enzyme Inhibition Assay; also: in the data most compounds retested in dose-response had high values
# Format: functional
# Set-up: scale not given: direction of the effect not stated beside the values
# Condition details: 30 µM
Property label: Percent Effect (%)
Lab book: enter the figure in %, no units written.

CC(=O)Nc1nc(C(=O)NCc2ccc(N3CCCCCC3)nc2)cs1	-18.9
CCN(Cc1nc2c(cnn2C)c(=O)[nH]1)c1cccc(Cl)c1	-9.43
c1coc(CN2C[C@H](OCC3CCOCC3)[C@H]3COC[C@H]32)c1	1.07
CN(C)CC1CN(c2ncnc3[nH]ccc23)CCO1 (configuration not stated)	-33
COc1cnc(C2(O)CCN(C(=O)c3ccncc3)CC2)c(OC)n1	-11.8

Ask: # lookup: Percent Effect of COCCOc1ccccc1C(=O)N1CCCCC1c1nccs1 (configuration not stated)
Result: -14.3

Ask: Quick one: Percent Effect for CC(Cn1cccn1)NC(=O)Nc1ccc(F)cc1 (configuration not stated) ?
Result: -1.51

Ask: Entry under review: Cc1cc(C)cc(NC(=O)CN2CCCC(n3cncn3)C2)c1 (configuration not stated) . Reported Percent Effect?
Result: -2.91

Ask: Quick one: Percent Effect of CCc1ccc(C(=O)N2CCN(CCS(C)(=O)=O)CC2)o1 ?
Result: 0.21

Ask: Which Percent Effect is listed for COCC(NC(=O)c1ccc[nH]1)c1cccc(C(F)(F)F)c1 (configuration not stated) ?
Result: -5.6

Ask: May I ask what Percent Effect has been recorded for C[C@@H]1CN(C(=O)c2ccc(C#N)nc2)CC[C@@]1(O)C1CCOCC1 ?
Result: -1.75

Ask: Which measured Percent Effect value corresponds to CN(Cc1cnn(C)c1)C(=O)NCc1csc(Br)c1 ?
Result: -6.6

* * *

# Measured on: Protein translocase subunit SecA (Escherichia coli (strain K12)) (UniProt P10408)
# Sequence (P10408 whole entry): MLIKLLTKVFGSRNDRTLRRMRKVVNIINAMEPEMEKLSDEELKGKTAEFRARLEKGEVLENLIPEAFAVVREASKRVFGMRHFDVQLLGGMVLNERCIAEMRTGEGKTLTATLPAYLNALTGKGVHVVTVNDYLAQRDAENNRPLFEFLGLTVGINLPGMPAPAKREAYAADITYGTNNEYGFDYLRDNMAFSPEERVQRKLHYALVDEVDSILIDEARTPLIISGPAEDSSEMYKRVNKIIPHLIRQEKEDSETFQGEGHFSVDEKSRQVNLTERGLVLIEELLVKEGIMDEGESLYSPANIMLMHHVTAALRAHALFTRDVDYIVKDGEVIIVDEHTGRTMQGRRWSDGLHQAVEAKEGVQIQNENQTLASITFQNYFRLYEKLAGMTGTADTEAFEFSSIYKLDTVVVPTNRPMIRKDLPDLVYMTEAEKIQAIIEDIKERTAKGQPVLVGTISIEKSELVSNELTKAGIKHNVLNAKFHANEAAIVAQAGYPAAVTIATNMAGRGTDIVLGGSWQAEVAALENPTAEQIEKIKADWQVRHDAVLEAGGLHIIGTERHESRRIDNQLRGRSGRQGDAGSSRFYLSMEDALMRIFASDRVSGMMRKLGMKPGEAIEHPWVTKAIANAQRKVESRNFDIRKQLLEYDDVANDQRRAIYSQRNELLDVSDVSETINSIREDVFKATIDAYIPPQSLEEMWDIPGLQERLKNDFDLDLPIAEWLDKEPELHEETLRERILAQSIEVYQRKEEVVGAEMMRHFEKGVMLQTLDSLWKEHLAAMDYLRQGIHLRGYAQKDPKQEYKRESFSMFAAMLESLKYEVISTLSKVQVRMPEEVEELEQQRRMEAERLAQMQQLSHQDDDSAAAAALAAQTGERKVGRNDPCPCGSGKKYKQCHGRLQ
# Assay remarks: Assay to Identify E. coli SecA ATPase Inhibitors
# Type: functional
# Parameters: scale not given: direction of the effect not stated beside the values
# Condition details: 30 µM
Measured potencies and affinities stand elsewhere.
Property label: Percent Effect (%)
Give the value in % but do not write % after it.

O=C(C1SCCc2sccc21)N1CCN(CCO)CC1 (configuration not stated)	-6.92
COc1ccnc(N2CCN(C(=O)c3cnn(C)c3C3CC3)CC2)n1	-5.79
COCc1nc2n(n1)CCCC2Nc1nc(C2CC2)ns1 (configuration not stated)	-2.6
Cc1ccc(C)c(NC(=O)c2n[nH]c(-n3cnnc3)n2)c1	-1.59
O=C(CN1CCCC(O)C1)NC(=O)NCc1cccs1 (configuration not stated)	-3.76
COC(=O)c1cccc(C(=O)N2CCN(c3cccc(C)c3C)CC2)n1	-0.0243

Ask: Please give the measured Percent Effect for this compound: NC(=O)CN1CCCN(C(=O)c2ccn(-c3ccccc3)n2)CC1
Result: 0.801

Ask: Any idea what its Percent Effect is? The compound is Cc1cccc(-c2nc(CN(Cc3cccs3)CC3CCCO3)no2)c1 (configuration not stated)
Result: -1.96

Ask: Entry under review: CCNC(=O)N1CCCCC1CCNS(C)(=O)=O (configuration not stated) . Reported Percent Effect?
Result: -1.55

Ask: Returns the measured Percent Effect for the input compound. Input: Cc1nc(CN2CCCC(NCc3c(C)nc4sccn34)C2)no1 (configuration not stated)
Result: -2.09

Ask: GET /values?readout=Percent Effect&item= CCCc1nc(C)cc(N2CCC3(CCC(=O)N(CC4CC4)C3)CC2)n1
Result: -2.3

Ask: Given O=C(c1cccc(F)c1)N1CCOC(c2nc(-c3ncccn3)no2)C1 (configuration not stated) , state its recorded Percent Effect.
Result: -7.06

* * *

Below is a list of entries, each paired with its recorded Percent Effect value.
# Measured on: Sialic acid-binding Ig-like lectin 9 (Homo sapiens)
# Assay remarks: Hs-Siglec9 ALPHAscreen SOP 20170721
# Set-up: scale not given: direction of the effect not stated beside the values
# Condition details: 10 µM
# output: bare number, implied unit %

Cc1cc(C)n(CC2CCCN2C(=O)c2cc[nH]n2)n1 (configuration not stated)	-3.12
Cc1c(C(=O)NC(C)C(C)C)nnn1-c1cccc2c1CCN(C)C2 (configuration not stated)	3.62
CCOc1ccccc1C(=O)NS(=O)(=O)c1ccc2c(c1)OCCCO2	0.997
CCCOCC(=O)NC1CCc2nc(C)cn2C1 (configuration not stated)	1.69

Ask: Which Percent Effect reading was recorded for the molecule CCCNC(=O)c1sccc1N(C)S(=O)(=O)c1ccc(Cl)cc1 ?
Result: -7.73

* * *

# Measured on: Arginase-2, mitochondrial (Homo sapiens)
# Sequence (whole entry): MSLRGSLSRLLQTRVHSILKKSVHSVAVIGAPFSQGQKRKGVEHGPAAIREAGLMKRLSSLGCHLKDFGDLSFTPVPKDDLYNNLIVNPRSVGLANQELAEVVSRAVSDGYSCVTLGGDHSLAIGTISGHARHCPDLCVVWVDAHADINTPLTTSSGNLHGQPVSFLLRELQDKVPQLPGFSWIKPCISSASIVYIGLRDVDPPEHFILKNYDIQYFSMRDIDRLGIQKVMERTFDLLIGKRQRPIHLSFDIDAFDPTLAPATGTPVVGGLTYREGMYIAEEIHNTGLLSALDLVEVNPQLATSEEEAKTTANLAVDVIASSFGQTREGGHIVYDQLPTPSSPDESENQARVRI
# Assay remarks: in vitro enzyme assay to detect the production of urea directly proportional to the activity of Arginase II; also: in the data most compounds retested in dose-response had high values
# Type: functional
# Parameters: scale not given: direction of the effect not stated beside the values
# Condition details: 33.3 µM
Property label: Percent Effect (%)
Give the value, in units of %, as a plain number.

Cc1ccc(S(=O)(=O)NC2CC2)cc1C	20.3
CCn1nc(CC(C)C)cc1C(=O)N1C[C@H](O)[C@@H](N2CCCCC2)C1	4.69
COC(=O)CNC(=O)CSCc1nc(O)c2cc(C(C)C)sc2n1	-9.68

Ask: Can you share its Percent Effect? I mean this compound: CCNC(=O)N1CCC2(C1)c1ccccc1S(=O)(=O)N2CCC(C)C (configuration not stated)
Result: -52.5

Ask: Percent Effect for CCOCC(=O)N1CCC(Oc2ccc(C(F)(F)F)cn2)CC1 ?
Result: 13.6

Ask: Consider the compound shown here: O=C(NCCCn1nc2ccccn2c1=O)NC1CCC(O)CC1 (configuration not stated) What is its recorded Percent Effect?
Result: 0.455

Ask: Value lookup for Percent Effect; key = COc1ccc(-c2noc(C(=O)NCCN3CCCCC3)n2)cc1OC
Result: -18.8
